These data points were gathered from paper PMC9197538.

format: in vivo, human; conditions: human, plasma, oral, Vss/F, apparent volume of distribution at steady state, geometric mean (%CV 38%), derived from the final population PK model
Measurement type: Vd/F
Your reply should be a number followed by the unit it is expressed in.

Query: For the molecule C=CC(=O)Nc1cc(Nc2ncc(C(=O)OC(C)C)c(-c3cn(C)c4ccccc34)n2)c(OC)cc1N(C)CCN(C)C [mobocertinib] , report Vd/F.
Response: 3510 L
